These entries and their values trace back to patent US12371454B2.

TARGET DESC: Kras and SOS1 (biotin-tagged human Kras loaded with GDP, His-tagged human SOS1) (Homo sapiens, UniProt P01116, G12D)
Construct: made in house; host or cells: E. coli (stated for Kras only)
Sequence (P01116 1-188 isoform P01116-2 G12D): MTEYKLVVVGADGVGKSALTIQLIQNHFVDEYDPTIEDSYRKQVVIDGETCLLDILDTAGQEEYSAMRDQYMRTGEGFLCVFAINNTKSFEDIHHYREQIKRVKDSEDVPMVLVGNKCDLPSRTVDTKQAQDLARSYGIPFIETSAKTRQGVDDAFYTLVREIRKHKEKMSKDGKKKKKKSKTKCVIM
TEST METHOD NOTES: Protein-protein interaction inhibition between Kras and SOS1 (KrasGl2D-SOS PPI) using AlphaScreen
Type: binding
MEASUREMENT PARAMETERS: AlphaScreen; biotin-tagged human Kras loaded with GDP, His-tagged human SOS1; read-out: KRAS G12D-SOS PPI IC50
Starred links: 1 amine or outer side, 2 acyl side, 3 side chain; linkers in the order of their positions; H or OH if unused. Positions of bridges follow the written chain, without caps; N, C: chain ends. Non-standard residues stand in square brackets, D forms with d. Residues, ends and D or L forms follow the SMILES beside them. *: point of attachment. hPhe(3-Cl-4-CF3) = N[C@@H](CCc1ccc(C(F)(F)F)c(Cl)c1)C(=O)O; NMePhe(3-OMe) = CN[C@@H](Cc1cccc(OC)c1)C(=O)O; NMePhe(4-Me) = CN[C@@H](Cc1ccc(C)cc1)C(=O)O; NMePhe(2-Cl) = CN[C@@H](Cc1ccccc1Cl)C(=O)O; NMeMet(O2) = CN[C@@H](CCS(C)(=O)=O)C(=O)O; NMedβ3hAla = C[C@H](CC(=O)[*:2])N(C)[*:1]; Phe(3-I) = N[C@@H](Cc1cccc(I)c1)C(=O)O; dαMeGly(allyl) = C=CC[C@@](C)(N)C(=O)O; X70 = CC(C)(O)COCCN(CC(=O)[*:2])[*:1]; NMeY = CN[C@@H](Cc1ccc(O)cc1)C(=O)O; NMeCha = CN[C@@H](CC1CCCCC1)C(=O)O; NMeChg = CN[C@H](C(=O)O)C1CCCCC1; NMeI = CC[C@H](C)[C@H](NC)C(=O)O; NMeD = CN[C@@H](CC(=O)O)C(=O)O; NMeL = CN[C@@H](CC(C)C)C(=O)O; NMeV = CN[C@H](C(=O)O)C(C)C; NMeS = CN[C@@H](CO)C(=O)O; NMeA = CN[C@@H](C)C(=O)O; NMeAib = CNC(C)(C)C(=O)O; Piperidide = C1CCN(*)CC1; Pra = C#CC[C@H](N)C(=O)O; Pyrrolidide = C1CCN(*)C1; Ac5c = NC1(C(=O)O)CCCC1; Aze = O=C(O)[C@@H]1CCN1; Aib = CC(C)(N)C(=O)O; Sar = CNCC(=O)O; Propyl = CCC*
PROPERTY NAME: IC50 (nM)

# MOLECULE, UNITS SYMBOL, MEASUREMENT
measured = [
    ("CC[C@H](C)[C@@H]1NC(=O)[C@H](CC(C)C)N(C)C(=O)C[C@@H](C(=O)N2CCCCC2)N(C)C(=O)[C@H](C(C)C)N(C)C(=O)C2(CCCC2)NC(=O)[C@@H]2CCCN2C(=O)[C@H](CCc2ccc(C(F)(F)F)c(Cl)c2)NC(=O)CN(C)C(=O)[C@H](C2CCCCC2)N(C)C(=O)[C@@H]2CCN2C(=O)[C@H](C)N(C)C1=O [Compound 526] ([NMeL]I[NMeA][Aze][NMeChg][Sar][hPhe(3-Cl-4-CF3)]P[Ac5c][NMeV][NMeD]-Piperidide; lactam N-11)", "nM", 6.6),
    ("CCCOC[C@H]1C(=O)N(C)CC(=O)N[C@@H](CCc2ccc(C(F)(F)F)c(Cl)c2)C(=O)N(CCOCC(C)(C)O)CC(=O)NC2(CCCC2)C(=O)N(C)[C@@H]([C@@H](C)CC)C(=O)N(C)[C@H](C)CC(=O)N(C)[C@@H](CC(C)C)C(=O)N[C@@H]([C@@H](C)CC)C(=O)N(C)[C@@H](C)C(=O)N2CC[C@H]2C(=O)N1C [Compound 2027] (cyclo([Ac5c][NMeI][NMedβ3hAla][NMeL]I[NMeA][Aze][NMeS](Propyl)[Sar][hPhe(3-Cl-4-CF3)][X70]))", "nM", 110),
    ("CC[C@H](C)[C@@H]1NC(=O)[C@H](CC(C)C)N(C)C(=O)C[C@@H](C(=O)N2CCCC2)N(C)C(=O)[C@H](C2CCCCC2)N(C)C(=O)C2(CCCC2)NC(=O)[C@@H]2CCCN2C(=O)[C@H](CCc2ccc(C(F)(F)F)c(Cl)c2)NC(=O)CN(C)C(=O)[C@H](Cc2ccc(C)cc2)N(C)C(=O)CN(C)C(=O)CN(C)C1=O [Compound 1658] ([NMeL]I[Sar][Sar][NMePhe(4-Me)][Sar][hPhe(3-Cl-4-CF3)]P[Ac5c][NMeChg][NMeD]-Pyrrolidide; lactam N-11)", "nM", 0.55),
    ("C=CC[C@@]1(C)NC(=O)[C@@H]2CCCN2C(=O)[C@H](CCc2ccc(C(F)(F)F)c(Cl)c2)NC(=O)CN(C)C(=O)[C@H](CC2CCCCC2)N(C)C(=O)CN(C)C(=O)CN(C)C(=O)[C@H]([C@@H](C)CC)NC(=O)[C@H](CC(C)C)N(C)C(=O)C[C@@H](C(=O)N2CCCCC2)N(C)C(=O)[C@H](C(C)C)N(C)C1=O [Compound 287] ([NMeL]I[Sar][Sar][NMeCha][Sar][hPhe(3-Cl-4-CF3)]P[dαMeGly(allyl)][NMeV][NMeD]-Piperidide; lactam N-11)", "nM", 5.1),
    ("CC[C@H](C)[C@@H]1NC(=O)[C@H](CC(C)C)N(C)C(=O)C[C@@H](C(=O)N2CCCCC2)N(C)C(=O)[C@H](C(C)C)N(C)C(=O)C2(CCCC2)NC(=O)[C@@H]2CCCN2C(=O)[C@H](CCc2ccc(C(F)(F)F)c(Cl)c2)NC(=O)CN(C)C(=O)[C@H](CCS(C)(=O)=O)N(C)C(=O)[C@@H]2CCN2C(=O)[C@H](C)N(C)C1=O [Compound 235] ([NMeL]I[NMeA][Aze][NMeMet(O2)][Sar][hPhe(3-Cl-4-CF3)]P[Ac5c][NMeV][NMeD]-Piperidide; lactam N-11)", "nM", 11),
    ("CC[C@H](C)[C@@H]1NC(=O)[C@H](CC(C)C)N(C)C(=O)C[C@@H](C)N(C)C(=O)[C@H](C2CCCCC2)N(C)C(=O)C2(CCCC2)NC(=O)[C@@H]2CCCN2C(=O)[C@H](CCc2ccc(C(F)(F)F)c(Cl)c2)NC(=O)CN(C)C(=O)[C@H](Cc2ccc(C)cc2)N(C)C(=O)[C@@H]2CCN2C(=O)[C@H](C)N(C)C1=O [Compound 1673] (cyclo([Ac5c][NMeChg][NMedβ3hAla][NMeL]I[NMeA][Aze][NMePhe(4-Me)][Sar][hPhe(3-Cl-4-CF3)]P))", "nM", 5.4),
    ("C#CC[C@@H]1NC(=O)[C@H](Cc2cccc(I)c2)NC(=O)CN(C)C(=O)[C@H](Cc2ccc(OC)cc2)N(C)C(=O)CN(C)C(=O)CN(C)C(=O)[C@H]([C@@H](C)CC)NC(=O)[C@H](CC(C)C)N(C)C(=O)C[C@@H](C(=O)N2CCCCC2)N(C)C(=O)[C@H](CC(C)C)NC(=O)C(C)(C)N(C)C1=O [Compound 1169] ([NMeL]I[Sar][Sar][NMeY](Me)[Sar][Phe(3-I)][Pra][NMeAib]L[NMeD]-Piperidide; lactam N-11)", "nM", 53),
    ("CC[C@H](C)[C@@H]1NC(=O)[C@H](C)N(C)C(=O)C[C@@H](C(=O)N(C)C)N(C)C(=O)[C@H]([C@@H](C)CC)N(C)C(=O)C2(CCCC2)NC(=O)[C@H](Cc2cccc(OC)c2)N(C)C(=O)[C@H](CCc2ccc(C(F)(F)F)c(Cl)c2)NC(=O)CN(C)C(=O)[C@H](Cc2ccc(C)cc2)N(C)C(=O)[C@@H]2CCN2C(=O)[C@H](C)N(C)C1=O [Compound 1922] ([NMeA]I[NMeA][Aze][NMePhe(4-Me)][Sar][hPhe(3-Cl-4-CF3)][NMePhe(3-OMe)][Ac5c][NMeI][NMeD]-NMe2; lactam N-11)", "nM", 3.1),
    ("CC[C@H](C)[C@@H]1NC(=O)[C@H](C)N(C)C(=O)C[C@@H](C(=O)N2CCCC2)N(C)C(=O)[C@H](C(C)C)N(C)C(=O)C(C)(C)NC(=O)[C@H](Cc2ccccc2Cl)N(C)C(=O)[C@H](CCc2ccc(C(F)(F)F)c(Cl)c2)NC(=O)CN(C)C(=O)[C@H](CC2CCCCC2)N(C)C(=O)CN(C)C(=O)CN(C)C1=O [Compound 426] ([NMeA]I[Sar][Sar][NMeCha][Sar][hPhe(3-Cl-4-CF3)][NMePhe(2-Cl)][Aib][NMeV][NMeD]-Pyrrolidide; lactam N-11)", "nM", 8.7),
]
